test system: MDA-MB-435; test: NCI tumour cell line growth inhibition, 48 h
Calls of active or inactive are those of the source. Rule as the data show it: active = GI50 up to about 1.1 µM and inactive = higher.
ASSAY_ENDPOINT: GI50

// solved cases for GI50 follow
{"columns": ["MOLECULE", "MEASURED_TARGET", "GI50"],
 "data": [
  ["C=CCc1[nH]c2c(OCc3ccccc3)cc(N(CC=C)C(C)=O)cc2c1C", "MDA-MB-435", "17.1 µM (inactive)"],
  ["CC1=CC(C)C(C)N(CCNS(=O)(=O)c2ccc(C)cc2)c2ccccc21 (stereo not given)", "MDA-MB-435", "13.5 µM (inactive)"],
  ["O=C1Sc2ccccc2NC1=C(C(=O)c1ccccc1)C(=O)c1ccccc1", "MDA-MB-435", "40.6 µM (inactive)"],
  ["C/C=C1/CN2CCC3(O)c4ccccc4N4C=C(C(=O)OC)C1CC2C43O (stereo not given)", "MDA-MB-435", "> 100 µM (inactive)"],
  ["CC(C)(C)OC(=O)N1CCCC1=O", "MDA-MB-435", "> 10 µM (inactive)"],
  ["CCO/C=N/C1=C(C#N)C(c2ccc(OC)c(OC)c2)c2c(-c3ccccc3)nn(-c3ccccc3)c2O1 (stereo not given)", "MDA-MB-435", "17 µM (inactive)"]
]}

Incoming: So what does the record say about GI50 for COc1ccc(/C(Cl)=C(\C=O)c2ccc(OC)c(OC)c2)cc1OC ?
Outgoing: > 100 µM (inactive)

Incoming: So what does the record say about GI50 for CO/N=C(/C)c1cccc(Nc2nc3ccc(Cl)cc3c3[nH]c4ccccc4c23)c1 ?
Outgoing: 8.57 µM (inactive)

Incoming: So what does the record say about GI50 for C/C(=C\CNc1ncnc2c1ncn2CCC#N)CO ?
Outgoing: > 100 µM (inactive)

Incoming: So what does the record say about GI50 for COc1cc(/C=C2\CCC/C(=C\c3ccc(OC(=O)CCCCC4CCSS4)c(OC)c3)C2=O)ccc1OC(=O)CCCCC1CCSS1 (stereo not given) ?
Outgoing: > 100 µM (inactive)

Incoming: So what does the record say about GI50 for COC(=O)[C@@H]1CN(C(=O)c2ccccc2)C(=O)N1 ?
Outgoing: > 100 µM (inactive)

Incoming: So what does the record say about GI50 for COc1cc2c(cc1OC)C1=CCC(c3ccccc3)[N+]1(C)CC2 (stereo not given) ?
Outgoing: > 100 µM (inactive)

* * *

tested on: CAKI-1; assay: NCI tumour cell line growth inhibition, 48 h
Activity calls are given as the source filed them. Rule as the data show it: active = GI50 up to about 1.1 µM and inactive = higher.
Please answer using one outcome listed in 1 (yes) = active, 0 (no) = inactive

A selection of reference data follows.
{"columns": ["COMPOUND", "LABEL"],
 "data": [
  ["C/C=C1/CN2CCC3(O)c4ccccc4N4C=C(C(=O)OC)C1CC2C43O (stereo unspecified)", "0 (no)"],
  ["Cc1ccc(C2SCc3nc4ccccc4n32)cc1 (stereo unspecified)", "0 (no)"],
  ["CCOC(=O)c1c2ccccc2n2c(=O)n(C)nnc12", "0 (no)"],
  ["C/C1=C/C(C)CC(C)OC(=O)C(C)NC(=O)C(Cc2ccc(O)c(I)c2)N(C)C(=O)CNC(=O)C(C)C1 (stereo unspecified)", "1 (yes)"],
  ["Cc1cc(=O)n(-c2ccccc2)c(=O)o1", "0 (no)"],
  ["COc1cc(C(=O)C/C(CCC(=O)Nc2ccc(Cl)cc2Cl)=N/NC(=O)C(N)=O)ccc1O", "0 (no)"],
  ["C/C=C/[C@H]1O[C@@](O)([C@@H](C)[C@H](O)[C@H](C)[C@H]2OC(=O)/C(OC)=C/C(C)=C/[C@@H](C)[C@@H](O)[C@@H](CC)[C@@H](O)[C@H](C)C/C(C)=C/C=C/[C@@H]2OC)C[C@H](OC2CC(O)C(O)C(C)O2)[C@@H]1C (stereo partly specified)", "1 (yes)"],
  ["Nc1ncnc2c1ncn2C1OC(CO)=CC1O (stereo unspecified)", "0 (no)"],
  ["COc1ccc(C2CC3(c4ccccc4)ON=C(c4ccccc4)N3c3ccccc3S2)cc1 (stereo unspecified)", "0 (no)"],
  ["Cc1cccc2c1[nH]c1[nH]c(=O)[nH]c(=O)c12", "0 (no)"]
]}

Then this compound:
Incoming: Called result for CCCOCN1COCN/C1=N\C#N
Outgoing: 0 (no)
